Source: patent US9187425B2

The reader will find Ki measurements below, all made with CCR3 (UniProt P51677).

Recorded results for 3 compounds are shown here.
COC(=O)C1CN(S(=O)(=O)c2cc(C#N)ccc2Sc2cc(Cl)cc(Cl)c2)CCN1 (centres unmarked)    ≤ 0.05 µM
N#Cc1ccc(Sc2cc(Cl)cc(Cl)c2)c(S(=O)(=O)N2CCSCC2)c1    ≤ 0.05 µM
Cc1cc(C)cc(Sc2ccc([N+](=O)[O-])cc2S(=O)(=O)N2CCSCC2)c1    > 5 µM

Enter reported Ki observed with CCR3 (UniProt P51677) for O=[N+]([O-])c1ccc(Sc2cc(Cl)cc(Cl)c2)c(S(=O)(=O)N2CCS(=O)(=O)CC2)c1
≤ 0.05 µM

Enter reported Ki observed with CCR3 (UniProt P51677) for N#Cc1ccc(Sc2cc(Cl)cc(Cl)c2)c(S(=O)(=O)N2CCOCC2)c1
≤ 0.05 µM

Enter reported Ki observed with CCR3 (UniProt P51677) for N#Cc1ccc(Sc2cc(C(F)(F)F)cc(C(F)(F)F)c2)c(S(=O)(=O)N2CCS(=O)(=O)CC2)c1
> 5 µM

Enter reported Ki observed with CCR3 (UniProt P51677) for N#Cc1ccc(Sc2cc(C(F)(F)F)cc(C(F)(F)F)c2)c(S(=O)(=O)N2CCSCC2)c1
> 5 µM

Enter reported Ki observed with CCR3 (UniProt P51677) for CC1CN(S(=O)(=O)c2cc(C#N)ccc2Sc2cc(Cl)cc(Cl)c2)CC(C)N1 (centres unmarked) [Compound 29]
≤ 0.05 µM

----------
pKi: −log10 of the molar value.
The reader will find pKi measurements below, all made with UniProt:P51677.

Recorded results for 3 molecules are shown here.
CC1CN(S(=O)(=O)c2cc(C#N)ccc2Sc2cc(Cl)cc(Cl)c2)CCN1 (centres unmarked) [Compound 27]    ≥ 7.30
CC1CN(S(=O)(=O)c2cc(C#N)ccc2Sc2cc(Cl)cc(Cl)c2)CC(C)N1 (centres unmarked) [Compound 28]    ≥ 7.30
Cc1cc(C)cc(Sc2ccc(C#N)cc2S(=O)(=O)N2CCNC(=O)C2)c1 [Compound 10]    ≥ 7.30

Enter reported pKi observed with UniProt:P51677 for N#Cc1ccc(S(=O)(=O)c2cc(Cl)cc(Cl)c2)c(S(=O)(=O)N2CCCCC2)c1 [Compound 3]
< 5.30

Enter reported pKi observed with UniProt:P51677 for N#Cc1ccc(Sc2cc(C(F)(F)F)cc(C(F)(F)F)c2)c(S(=O)(=O)N2CCOCC2)c1 [Compound 18]
5.30 to 6.30

Enter reported pKi observed with UniProt:P51677 for Cc1cc(C)cc(Sc2ccc(C#N)cc2S(=O)(=O)N2CCS(=O)(=O)CC2)c1 [Compound 26]
< 5.30

Enter reported pKi observed with UniProt:P51677 for N#Cc1ccc(Sc2cc(Cl)cc(Cl)c2)c(S(=O)(=O)N2CCNC(=O)C2)c1 [Compound 9]
≥ 7.30

Enter reported pKi observed with UniProt:P51677 for Cc1cc(C)cc(Sc2ccc(C#N)cc2S(=O)(=O)N2CCSCC2)c1 [Compound 16]
< 5.30
